Where these numbers come from: patent EP2998000A1

test system: tumour cells; assay: in vitro cytotoxicity screen of drugs co-incubated with L. welshimeri (tumour cell survival assay, MTS); conditions: change of drug cytotoxicity on tumour cells after co-incubation with L. welshimeri, bacteria removed by filtration, Up/Down/NC
Measurement Type: Cytotoxicity L. welshimeri

* Nc1nc(Cl)nc2c1ncn2[C@H]1C[C@H](O)[C@@H](CO)O1 [Cladribine] | Down
* COc1cccc2c1C(=O)c1c(O)c3c(c(O)c1C2=O)C[C@@](O)(C(C)=O)C[C@@H]3O[C@H]1C[C@H](N)[C@H](O)[C@H](C)O1 [Daunorubicin] | Down
* Nc1nc(F)nc2c1ncn2[C@@H]1O[C@H](COP(=O)(O)O)[C@@H](O)[C@@H]1O [Fludarabine de phosphate] | Up
* NC(=O)c1cc(N2CC2)c([N+](=O)[O-])cc1[N+](=O)[O-] [CB1954] | Up
